Just for reference, patent US8466176B2 is where these values come from.

- test_summary: logP(HCOOH) reported with HPLC/MS
- condition_info: reversed phase HPLC column, pH 2.7, log p, method [b]: LC-MS at pH 2.7, 0.1% formic acid in water and acetonitrile, linear gradient 10% to 95% acetonitrile
Listing: chromatographic logP of selected molecules
API note: the answer field is a bare number with no unit suffix.

>  <molecule>
Cn1nnnc1C(=NOCc1nc(Cl)sc1Cl)c1ccccc1

>  <chromatographic logP>
3.67

$$$$
>  <molecule>
CCCCCC(=O)NCc1cccc(CON=C(c2ccccc2)c2nnnn2C)n1

>  <chromatographic logP>
2.88

$$$$

input: Which chromatographic logP is listed for `Cn1nnnc1C(=NOCc1nc(C#CC2CC2)sc1Cl)c1ccccc1` ?
output: 4.59

input: Which chromatographic logP is listed for `Cn1nnnc1C(=NOCc1cccc(CN)n1)c1ccccc1` ?
output: 1.23

input: Which chromatographic logP is listed for `COc1ccc(CON=C(c2ccccc2)c2nnnn2C)nc1C#CC1CC1` ?
output: 3.23
